- target under test: rat Neuropilin-1/Fc chimeric receptor (rat, UniProt Q9QWJ9 22-854)
- Sequence (Q9QWJ9 22-854, stated change not applied): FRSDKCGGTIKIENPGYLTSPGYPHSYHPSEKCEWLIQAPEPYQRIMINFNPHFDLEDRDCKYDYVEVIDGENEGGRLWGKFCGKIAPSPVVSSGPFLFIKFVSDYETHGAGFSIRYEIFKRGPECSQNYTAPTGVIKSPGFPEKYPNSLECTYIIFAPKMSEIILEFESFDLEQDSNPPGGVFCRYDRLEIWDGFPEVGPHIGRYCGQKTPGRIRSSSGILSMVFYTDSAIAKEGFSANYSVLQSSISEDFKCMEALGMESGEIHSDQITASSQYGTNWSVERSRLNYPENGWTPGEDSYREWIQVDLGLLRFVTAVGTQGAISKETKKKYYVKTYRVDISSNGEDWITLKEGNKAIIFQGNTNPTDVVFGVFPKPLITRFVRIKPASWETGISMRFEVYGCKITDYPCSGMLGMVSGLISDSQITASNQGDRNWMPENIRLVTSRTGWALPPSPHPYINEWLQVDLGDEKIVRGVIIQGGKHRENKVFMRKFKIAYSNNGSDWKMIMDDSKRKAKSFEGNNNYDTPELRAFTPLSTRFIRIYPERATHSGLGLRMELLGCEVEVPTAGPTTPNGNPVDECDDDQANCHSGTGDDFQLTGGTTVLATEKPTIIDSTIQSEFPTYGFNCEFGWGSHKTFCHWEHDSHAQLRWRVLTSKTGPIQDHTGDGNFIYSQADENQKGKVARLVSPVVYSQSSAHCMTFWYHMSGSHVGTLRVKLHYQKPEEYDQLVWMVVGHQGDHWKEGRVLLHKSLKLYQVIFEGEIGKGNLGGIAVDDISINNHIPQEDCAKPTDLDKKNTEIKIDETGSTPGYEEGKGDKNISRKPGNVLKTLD
- measurement description: competition plate binding assay, HBD against 125I-VEGF165 on immobilized rat neuropilin-1/Fc
pIC50: −log10 of the molar value.
reported endpoint: pIC50

recombinant heparin-binding domain of VEGF164 (HBD) (also called soluble HBD; VEGF55) ARQENPCGPCSERRKHLFVQDPQTCKCSCKNTDSRCKARQLELNERTCRCDKPRR    7.54

meta.source: patent US20060286636A1
